- procedure-text: folding stability dG unfold from trypsin proteolysis; higher = more stable
Rule: folding stability dG unfold of 1 kJ/mol or more gives 1.0; anything lower gives 0.0.

1) SAGGSAGGSAGMRLVTITLTTEKPIFDENGNPIGTTTRTVVLEREVPEPEVPEVPLYQALSAGGSAGGSAGG [r11_131_JUSTAS] = 1.0
2) SAGMKPIVELLKKEPNPKVILVEVFPTGGEAKIVVKDKVYVFPVKPGPGRRVLVVDPDGKILEVKPFPVSAG [r5_329_TrMRF] = 1.0
3) SAGGEMTAEERARRLAERLAEELERRTGRKVEVVSVEVEYDPETDEVTVRIEIRLEDGSTLTIELRLSAGGS [r8_372_TrROS_Hall] = 1.0

Exam item: Is it the case that SAGGSAGGSAMLTKTIKLPNGKPASVTITTLSEGSSPGSSVDPKLVINADPNIPKEIVDKLLSAGGSAGGSA [r18_272_JUSTAS] has folding stability dG unfold reaching or exceeding 1 kJ/mol?
Marked response: 0.0

Exam item: Is it the case that SAGMTLTLELPVPPDMSEEEARALALARVREEVAALSPGGATVTPVAVSVDPETGTVSLEVEVEVPPLASAG [r5_146_JUSTAS] has folding stability dG unfold reaching or exceeding 1 kJ/mol?
Marked response: 1.0

Exam item: Is it the case that SAGGSAGGSNKLVKELAKDPNIKSIFVDTKNKKVYILTDNYLIVIDKNGKIEKIEPISPEKLKSAGGSAGGS [r12_895_TrMRF] has folding stability dG unfold reaching or exceeding 1 kJ/mol?
Marked response: 1.0

Exam item: Is it the case that SMKVEIEEEVEGDRITLTIKFDDEEEAEKAIKELAKELGIPMKVLSRESEKLPGGEYKLTITGEVPPDLKSA [r9_102_JUSTAS] has folding stability dG unfold reaching or exceeding 1 kJ/mol?
Marked response: 0.0

---

- procedure-text: folding stability dG unfold from chymotrypsin proteolysis; higher = more stable
Provide the reported folding stability dG unfold of each item.
One number for each entry, in kcal/mol.

Solved cases below.
1) SAGGSAGGPLRIEIEIKIEIFPFPDGWYLIRMTIKIKVYNPGEDGQPIAEYEITFYFIIPPGDFSAGGSAGG [r6_60_TrROS] = 6.06
2) SAGGSAGGSAGGDPLPVTFTIPLEDDTTAKAVLSGDLVEVTIPNGKKYVLIPNPAVLGSSAGGSAGGSAGGS [r10_1176_TrMRF] = -0.232
3) SAGGSAGGSAGGEPEVKVELRVELDEDGRLRVTLKVEFEDGTVERELELEAPVVFFPPEESAGGSAGGSAGG [r7_992_TrROS_Hall] = 2.07

Now consider the entry below.
Exam item: Value lookup for folding stability dG unfold; key = SAGGDPAPLEVDIEMDPDNGRIRIEIRAGGSKVIYEYEIPLDGYEFKVKIIVVDGKIVIEIEFEMPDSAGGS [r16_631_TrROS]
Marked response: 3.81

---

- procedure-text: folding stability dG unfold from trypsin proteolysis; higher = more stable
Rule: folding stability dG unfold of 2 kcal/mol or more gives criterion met; anything lower gives criterion not met.

Answered cases to consult:
1) KKKYLVLLEARPRLYEFDENGKLIREIPLLVPFIGEGNDPEKVKEAAEKLFGEEVKILEVFPLEEVEEGKIS [r1_493_TrMRF] = criterion not met
2) SAGGMKTSAEELVERLKKELEAKGLKPKEVKKLPDGSLLVEFEEDVVVYIDAKTGTVTVLTPEEYEKLSAGG [r13_717_JUSTAS] = criterion not met
3) SAMIEIPFSPDTPVEERLAMIKEAIEAAKAAGIEPKEITLIVPPDREDILEAVEEAGIPKERVKIKDQPSAG [r14_589_JUSTAS] = criterion not met
4) SAGGKPNWVWFKITINVTPEQLENMTLDEIADRVIDELMKLGFPIKKIEIDEIQWDGDRVTIYIRIRVSAGG [r13_432_TrROS] = criterion met
5) SAGGSAGGSAAPVVREIEIDLPYPDGSPLTVEKVTEEPAPGTVHYEIKLPDGTVITRTVPTFSAGGSAGGSA [r18_370_JUSTAS] = criterion not met

Attention now shifts to the item below.
Exam item: Is it the case that SAANTEEITITVPLTDPETGEERTVTIPVKYVNTNKPYKTPNGSTKTIPVPKSTVIKEAEEEAKKIFESSSA [r9_698_JUSTAS] has folding stability dG unfold reaching or exceeding 2 kcal/mol?
Marked response: criterion not met

---

- procedure-text: folding stability dG unfold from chymotrypsin proteolysis; higher = more stable
measurement-type: folding stability dG unfold
Hi, when you answer, please include the unit after the number. Thanks!

Solved cases below.
1. KRVTIMFNFPPGKPLPLSELAGFARNSGGEVKIQIYNPDDGKWQEITFPGGKIDDVEMFPDGWMVMITVKGS [r1_238_TrROS] = 2.83 kcal/mol
2. SAGGEYTVVSVLEERKDPATGKTVTLELLKDPNSNVLYRRVTTTDPANPDVVTTTLYDAAGNKVSTVSSAGG [r13_658_JUSTAS] = 2.62 kcal/mol
3. SASESAVVEEEYTIDVTTVTPPGTPTTEPVRLTITRLPPNTVEVTLTAPDGKTVETRVIPLSVSLEELLSAG [r14_559_JUSTAS] = 0.134 kcal/mol
4. SAGGSAGGSAGGMVKIKLKNGKWYEAKVTEIDEDGNVVVELPNGKKFTVPAKDLEIEVLPSAGGSAGGSAGG [r7_823_TrROS_Hall] = 3.7 kcal/mol
5. SAGIFRFPDGQEITIPYYARTPNGKITPSEIKEQIKEFLAEQPGVKITEIEVEHEDNYVRVTITVRLPKSAG [r5_688_TrROS] = 0.316 kcal/mol
6. SAGGKTIEVWFLFPPGMPPEEVASTIAKLLPPGFKIDVEILEVQPDPGGEDYIIFKATIYYPDDGQPISAGG [r13_12_TrROS] = 4.68 kcal/mol

Now consider the entry below.
Exam item: Value lookup for folding stability dG unfold; key = SAGGSAGGKEFKIVKVEIEEREDGRLKIHITVEPGATPEEVKKALEELGFEVEEVEVVEVEEEESAGGSAGG [r6_543_TrROS_Hall]
Marked response: 2.37 kcal/mol

---

- procedure-text: folding stability dG unfold from chymotrypsin proteolysis; higher = more stable
Class (required): determined from folding stability dG unfold; valid ranges are A = under 0.5 kcal/mol, B = from 0.5 kcal/mol up to 2 kcal/mol, C = 2 kcal/mol and over

Answered cases to consult:
1) SAGGSEPPKIKKIKDINVKHERHNDRPYWEVKIRIKLKNGNTAEIDIEMPGMPPEEAREQIKDILKSAGGSA [r2_26_TrROS] = B
2) SADPGDTVELEFWLPPGMNPEFVEQMEDEIRNILRDLGLEVDVKVEPDPDNGYVPVTITITKEQLKDLFSAG [r14_602_TrROS] = B
3) SAGAVELPPGVAAVERDPETGVVTATYPDGTVTRYTVSTEWDPTVGRTRPRVTVEVWSPDSRISTRDLPSAG [r5_109_JUSTAS] = B

Exam item: Lab log: SAGGSAGGSAGGMVKTTTQVSIDPNSDYRYTTTTTTVVDANGKPLATQTTLTVTKLAGTSSAGGSAGGSAGG [r7_616_JUSTAS] — assign folding stability dG unfold category
Marked response: A

Exam item: Lab log: SAGGSPPLPLKITKITDTRYERNPDGQGWVKIEIRLPENGKPITIPVQADSPEQAEYAVKEALKKFSAGGSA [r2_248_TrROS] — assign folding stability dG unfold category
Marked response: A

Exam item: Lab log: SAGGSAKVKIEVSIEVSEDGTITITVRITNENGEELTVTITIKLPPAPTVVYDSEEERKKALEALASAGGSA [r15_1018_TrROS_Hall] — assign folding stability dG unfold category
Marked response: C

Exam item: Lab log: SAGGMKIGVLLPKSIPPEKAEEFLKKLNPDLEVEYRPVEPGSLKDIPPEIEVIVLPADDDFALALVKPSAGG [r13_649_TrMRF] — assign folding stability dG unfold category
Marked response: A

Exam item: Lab log: SAMKWSEVVVSYPSDRWYAEIYTPGPGGELTSVSYREFDSLEELEQWIEEKAPPGEVEVKREPAPPELLSAG [r14_964_JUSTAS] — assign folding stability dG unfold category
Marked response: B

---

- procedure-text: folding stability dG unfold from trypsin proteolysis; higher = more stable
measurement-type: folding stability dG unfold (kJ/mol)
One number for each entry, in kJ/mol.

1) SGMTTSLGKSTTTTLPDGTTVKTEVKLTRPSSGTVVVTTDTTTVTPGTGTTTTTPTTTVVPVPPGVPGLLSA [r9_709_JUSTAS] = -2.18

Take each entry in turn and give its folding stability dG unfold.
1. SAGGSAEIAEKNGFKITVELHRYNDYIMVEIEIRWPGGQEFTVTIMIKIKIVPPKPPVDPNDPDNNSAGGSA [r15_843_TrROS]
2. SALEELLKELAEKLGYPYTVLEIKKEENTYKMVIKLTKEGTPVIVDVEIEFPSSDPNVYKVKIKKIEEPSAG [r14_387_JUSTAS]
3. SAGITIIIRGPDAKEAAEDIAKELLKNGFKRPITVHVLDPDGKPWYRIKIQFDPKNPGKIKVKVEPYDSAGG [r19_85_TrROS]

Marked response:
18.7
11.7
14.2
